Cited source: paper PMC9231250

# System: hiPSC-CMs
# assay.info: Cardiotoxicity screen, CellTiter-Glo cell viability in hiPSC-derived cardiomyocytes
# settings: Homo sapiens, Cardiomyocyte, 24 h, read-out: cardiotoxicity IC50
Where a name gives a salt, the structure may show the parent alone.
Property: IC50; scope: individual molecules
Please append the unit to your numeric answer.

CCC(CC)COC(=O)[C@H](C)N[P@](=O)(OC[C@H]1O[C@@](C#N)(c2ccc3c(N)ncnn23)[C@H](O)[C@@H]1O)Oc1ccccc1 : 51 µM

Now for the molecule whose IC50 we want.
According to the records, this molecule CCOC(=O)c1c(CSc2ccccc2)n(C)c2cc(Br)c(O)c(CN(C)C)c12 [arbidol, arbidol hydrochloride] displays IC50 of 61 µM

----------
# Test system: hiPSC-NEURs
# assay.info: Neurotoxicity screen, CellTiter-Glo cell viability in hiPSC-derived neurons
# settings: Homo sapiens, Neuron, 24 h, read-out: neurotoxicity IC50
Structures can show the parent of a compound that is named as a salt.
quantity.kind: pIC50
Note: pIC50 values are expressed as the negative base-10 logarithm of concentration in M.

The following compounds have reported results that may help.
CCC(CC)COC(=O)[C@H](C)N[P@](=O)(OC[C@H]1O[C@@](C#N)(c2ccc3c(N)ncnn23)[C@H](O)[C@@H]1O)Oc1ccccc1 : 4.39
CCN(CC)CCCC(C)Nc1ccnc2cc(Cl)ccc12 (stereo not shown) : 4.15
CCOC(=O)c1c(CSc2ccccc2)n(C)c2cc(Br)c(O)c(CN(C)C)c12 [arbidol, arbidol hydrochloride] : 4.38

According to the records, this compound CCN(CCO)CCCC(C)Nc1ccnc2cc(Cl)ccc12 (stereo not shown) [hydroxychloroquine] displays pIC50 of 4.28

----------
# System: hiPSC-NEURs
# assay.info: Neurotoxicity screen, CellTiter-Glo cell viability in hiPSC-derived neurons
# settings: Homo sapiens, Neuron, read-out: neurotoxicity, individual variability between individuals (lowest)
quantity.kind: IC50 (nM)
Output spec: scalar in nM, unitless text.

According to the records, this compound CCC(CC)COC(=O)[C@H](C)N[P@](=O)(OC[C@H]1O[C@@](C#N)(c2ccc3c(N)ncnn23)[C@H](O)[C@@H]1O)Oc1ccccc1 [remdesivir] displays IC50 of 3000
